src = PubChem BioAssay (NCI)

Test system: CAKI-1 renal
Assay: NCI-60 one-dose screen, 48 h (100 = growth as untreated, 0 = no growth, -100 = all killed)
Settings: 10 µM unless noted
Compounds without any hit were thinned out: in the full panel of roughly 83,000, 20% have a hit.
Kindly apply the following: TRUE if growth is less than 90%, FALSE in every other case.

Molecule: CC(C)Nc1ccc(Nc2ccc(NC(C)C)cc2)cc1
Answer label: FALSE

Molecule: CCCCCCC1N=C(N)N=C(N)N1c1cccc(Cl)c1 (centres undefined)
Answer label: FALSE

Molecule: CCCCCCCCCCCC1=NCCCN1CCCC
Answer label: FALSE

Molecule: Oc1ccc(Cl)cc1Cc1cc(Cl)ccc1O
Answer label: TRUE

Molecule: Cc1cc(I)nc2ccccc12
Answer label: FALSE

Molecule: CN(C)c1ccc(/C=C/c2cc[n+](C)c(/C=C/c3ccc(N(C)C)cc3)c2)cc1
Answer label: TRUE

Molecule: COc1cc(OC)c(/C=C/c2c3ccccc3cc[n+]2C)c(OC)c1
Answer label: TRUE

Molecule: N#CC(I)CS(=O)(=O)c1ccccc1 (centres undefined)
Answer label: TRUE

Molecule: CCCCCCCCCCCCCCCCCC1=NCCCN1CCO
Answer label: FALSE

Molecule: O=[N+]([O-])c1ccc2c(c1)Cc1ccccc1-2
Answer label: FALSE

Molecule: CC(=O)N1CC(=O)NC1=S
Answer label: FALSE

Molecule: O=C1C=CC(=O)N1c1ccc(O)cc1
Answer label: FALSE

* * *

System: A549/ATCC NSCLC
Assay: NCI-60 one-dose screen, 48 h
Details: 10 µM unless noted
The panel holds about 83,000 compounds, 20% with a hit somewhere; the sample as a whole holds those more often. Calls of active or inactive are those of the source. Rule for the calls: active = growth percent below 10; inactive = the rest.
Labels: true (1) = active, false (0) = inactive

Molecule: O=C1c2ccccc2C(=O)c2c(O)c(Cl)cc(O)c21
Answer label: false (0)

Molecule: CC(=O)N1CC(=O)NC1=S
Answer label: false (0)

Molecule: O=C(c1ccccc1)C(Br)[N+](=O)[O-] (stereo not drawn)
Answer label: false (0)

Molecule: O=C1/C(=C\c2ccc([N+](=O)[O-])cc2)CS(=O)(=O)C/C1=C/c1ccc([N+](=O)[O-])cc1
Answer label: true (1)

Molecule: CC(=O)c1ccc2c(c1)CCc1ccccc1-2
Answer label: false (0)

Molecule: CCCCCCCCCCCCSC(=N)N
Answer label: false (0)

Molecule: CCCCCCCCc1cc(Cl)c(O)c(Cl)c1
Answer label: false (0)

Molecule: O=C(c1ccc(O)c(Br)c1)c1ccc(O)c(Br)c1
Answer label: false (0)

Molecule: CC1(C)OCC(COC(c2ccccc2)(c2ccccc2)c2ccccc2)O1 (stereo not drawn)
Answer label: false (0)

Molecule: CC(C)(C)c1ccc(CCO)cc1
Answer label: false (0)

Molecule: CCCOS(=O)(=O)c1ccccc1
Answer label: false (0)

Molecule: Cc1ccccc1N=C(N)Nc1ccccc1C (tested in a mixture with another compound)
Answer label: false (0)

Molecule: COC1=CC(=O)c2c(O)c3c(c(O)c2C1=O)CC(C)(O)OC3 (stereo not drawn)
Answer label: true (1)

Molecule: O=C(/C=C/c1ccccc1)c1ccccc1O
Answer label: false (0)

Molecule: CCCCCCC1N=C(N)N=C(N)N1c1cccc(Cl)c1 (stereo not drawn)
Answer label: false (0)

Molecule: CCC1CCCCN1C(=S)N/N=C(\C)c1ccccn1 (stereo not drawn)
Answer label: true (1)

Molecule: N=C(N)Sc1cccc[n+]1[O-]
Answer label: false (0)

Molecule: O=S(=O)(O)c1cnccn1
Answer label: false (0)

Molecule: COc1ccc(/C=C2/C(=O)ON=C2C)cc1
Answer label: false (0)

Molecule: O=C1C=CC(=O)N1c1ccc(O)cc1
Answer label: false (0)

Molecule: O=C(c1ccccc1)C(Br)C(Br)c1ccccc1 (stereo not drawn)
Answer label: false (0)

Molecule: CCCCCCN(CCCCCC)CCCNc1nccc2ccccc12
Answer label: false (0)

Molecule: O=C(CBr)c1ccc(OC(=O)c2ccccc2)cc1
Answer label: false (0)

Molecule: CCC(=O)c1cc([N+](=O)[O-])c(Br)s1
Answer label: false (0)

Molecule: O=[N+]([O-])c1ccc(Oc2ccccc2Cl)c([N+](=O)[O-])c1
Answer label: false (0)

Molecule: O=[N+]([O-])c1ccc(C2N(Cc3ccc(Cl)cc3)CCN2Cc2ccc(Cl)cc2)cc1
Answer label: false (0)

Molecule: Cc1ccccc1NC(=O)Cc1csc2[n+]1C(=O)/C(=C/c1ccc([N+](=O)[O-])cc1)S2
Answer label: false (0)

Molecule: CC(=O)Nc1ccc(C(=O)CCl)cc1
Answer label: false (0)

* * *

System: TK-10 renal
Test: NCI-60 one-dose screen, 48 h (100 = growth as untreated, 0 = no growth, -100 = all killed)
Conditions: 10 µM unless noted
The panel holds about 83,000 compounds, 20% with a hit somewhere; the sample as a whole holds those more often.
The reader will find reported growth values listed item by item below.

Molecule: CC1(C)OC2C(COC(c3ccccc3)(c3ccccc3)c3ccccc3)OC(c3c[nH]c4c(N)ncnc34)C2O1 (stereo unspecified)
growth / %: 84.2
//
Molecule: OC(c1cc2ccc(C(F)(F)F)cc2c2cc(C(F)(F)F)ccc12)C1CCCCN1 (stereo unspecified)
growth / %: -89.5
//
Molecule: CCCCC(CCc1ccc([N+](=O)[O-])cc1)(C(C)=O)C(=O)OCC (stereo unspecified)
growth / %: 97.3
//
Molecule: CN1CCC(CN2c3ccccc3Sc3ccccc32)C1 (stereo unspecified)
growth / %: 92
//
Molecule: COC(=O)Nc1nc2ccc(C3(c4ccc(F)cc4)OCCO3)cc2[nH]1
growth / %: 47.2
//
Molecule: O=C(c1ccccc1)c1cc2ccccc2oc1=O
growth / %: 130
//
Molecule: O=C1/C(=C\c2ccc([N+](=O)[O-])cc2)CS(=O)(=O)C/C1=C/c1ccc([N+](=O)[O-])cc1
growth / %: -99
//
Molecule: NC(=S)N/N=C/c1ncccc1O
growth / %: 71.2
//
Molecule: CCN(CC)c1ccc(/C=C\C(=O)c2ccc(NC(C)=O)cc2)cc1
growth / %: 92.4
//
Molecule: CCCC[n+]1c(/C=C\c2c(OC)cc(OC)cc2OC)ccc2ccccc21
growth / %: -12.7
//
Molecule: [Cl-].[Rh+3].c1ccc(-c2ccnc3c2ccc2c(-c4ccccc4)ccnc23)cc1.c1ccc(-c2ccnc3c2ccc2c(-c4ccccc4)ccnc23)cc1.c1ccc(-c2ccnc3c2ccc2c(-c4ccccc4)ccnc23)cc1
growth / %: 107
//
Molecule: O=C(CCl)N(c1ccccc1)c1ccccc1
growth / %: 105
//
Molecule: Oc1ccccc1N=Cc1ccccc1
growth / %: 122
//
Molecule: O=C(Nc1ccc(Cl)c(Cl)c1)OCc1ccco1
growth / %: 58.2
//
Molecule: Cc1ccccc1NC(=O)Cc1csc2[n+]1C(=O)/C(=C/c1ccc([N+](=O)[O-])cc1)S2
growth / %: 117
//
Molecule: NC(=S)Nc1ccc2c(c1)Cc1ccccc1-2
growth / %: 121

* * *

Tested on: HS 578T breast
Experiment: NCI-60 one-dose screen, 48 h (100 = growth as untreated, 0 = no growth, -100 = all killed)
Details: 10 µM unless noted
The panel holds about 83,000 compounds, 20% with a hit somewhere; the sample as a whole holds those more often.
The reader will find reported growth values listed item by item below.

Compound: N=C(N)Sc1cccc[n+]1[O-]
growth (%): 82.9
//
Compound: COC(=O)c1ccc(=O)c2nc3/c(=C/O)c(O)cc(=O)c3[nH]c12
growth (%): -10.3
//
Compound: Cc1cc2cccnc2c2ncccc12
growth (%): 61.3
//
Compound: O=C1C=CC(=O)N1c1cc(Cl)c(Cl)cc1Cl
growth (%): 137
//
Compound: CCCCCC/C=C1\CCC(CN2CCCC2)C1=O (centres undefined)
growth (%): 96.3
//
Compound: CCCCCCCCCCCC[N+]1(CCCCCCCCCCCC)CCCC(C)C1 (centres undefined)
growth (%): -40.8
//
Compound: CN(C)c1ccc(/C=C/c2sc3ccc4ccccc4c3[n+]2C)cc1
growth (%): -29.1
//
Compound: Cc1ccc2c(c1)sc(-c1ccc(N(C)C)cc1)[n+]2C
growth (%): 20.3
//
Compound: CCOC(=O)C1=NN(c2ccccc2)C(=O)/C1=C\N1C(=O)/C(=C/c2cccc(O)c2)SC1=S
growth (%): 94
//
Compound: COc1ccc2c(c1)c(CC(=O)O)c(C)n2C(=O)c1ccc(Cl)cc1
growth (%): 97.8
//
Compound: CCN(CC)CCNc1ccc([N+](=O)[O-])c2sc3ccccc3c(=O)c12
growth (%): 20.4
//
Compound: COc1cccc2c1C(=O)c1c(O)c3c(c(O)c1C2=O)C[C@@](O)(C(=O)CO)C[C@@H]3OC1CC(OC(C)=O)C(OC(C)=O)C(C)O1 (some centres undefined)
growth (%): -10.9
//
Compound: Cc1cc(N/N=C/c2ccccn2)nc2ccccc12
growth (%): 74.8
//
Compound: CCCCCCCCCCCCCCCc1ccc(C(=O)C[n+]2ccccc2)cc1
growth (%): -37.3
//
Compound: O=C1C(=O)c2cccnc2-c2ncccc21
growth (%): -47.5
//
Compound: Oc1c(Cl)cc(Cl)cc1C(c1cc(Cl)cc(Cl)c1O)C(Cl)(Cl)Cl
growth (%): -11.5
//
Compound: CCCCCCCCCCCCCCCCCC[S+](C)CC (centres undefined)
growth (%): 35.9
//
Compound: CCC[CH2][Sn]1([CH2]CCC)[O]C2C(CO)OC(n3ccc(N)nc3=O)C2[O]1 (centres undefined)
growth (%): -12.4
//
Compound: C1=C(c2ccccc2)c2ccccc2C1
growth (%): 95.2
//
Compound: CCOc1ccc2c(c1)/C(=C\C=C\C1CC(C)C3CC(OCC)CCC3N1CC)CC(C)N2CC (centres undefined)
growth (%): 63.6
//
Compound: c1csc(-c2[nH]nc3c2CCc2ccccc2-3)c1
growth (%): 90
//
Compound: O=C(c1ccccc1)c1cc2ccccc2oc1=O
growth (%): 90.6
//
Compound: OC(c1cc(-c2ccc(Cl)cc2)nc2c(Cl)cccc12)C1CCCCN1 (centres undefined)
growth (%): -47.6
//
Compound: NNc1cccc([N+](=O)[O-])c1
growth (%): 106
//
Compound: O=C(NNc1ccccc1)OCc1ccccc1
growth (%): 91.8
//
Compound: O=[N+]([O-])c1ccc(Oc2ccccc2Cl)c([N+](=O)[O-])c1
growth (%): 77.7
//
Compound: O=C(c1ccc(O)c(Br)c1)c1ccc(O)c(Br)c1
growth (%): 113
//
Compound: O=C(Nc1ccc(Cl)c(Cl)c1)OCc1ccco1
growth (%): 20.5
//
Compound: CCCCC(C=O)(C=C=C(C)C)CC (centres undefined)
growth (%): 112
//
Compound: O=C(c1ccccc1)N(CCCl)C(=O)N(CCCl)C(=O)c1ccccc1
growth (%): 110
//
Compound: CC(C)Nc1ccc(Nc2ccc(NC(C)C)cc2)cc1
growth (%): 73.4
//
Compound: CCCN(CCC)C(=O)c1ccc(C)cc1
growth (%): 84.1
//
Compound: O=C(c1ccccc1)c1ccc(O)c2ncccc12
growth (%): 52.7
//
Compound: Nc1nc2ncc(CNc3ccc(C(=O)NC(CCC(=O)NC(CCC(=O)NC(CCC(=O)NC(CCC(=O)NC(CCC(=O)O)C(=O)O)C(=O)O)C(=O)O)C(=O)O)C(=O)O)cc3)nc2c(=O)[nH]1 (centres undefined)
growth (%): 90.1
